Molecular target: T1, purified recombinant RSV-Ga protein (Sino Biologics) (Respiratory Syncytial Virus subtype A, …, UniProt P03423 64-298)
T1 sequence: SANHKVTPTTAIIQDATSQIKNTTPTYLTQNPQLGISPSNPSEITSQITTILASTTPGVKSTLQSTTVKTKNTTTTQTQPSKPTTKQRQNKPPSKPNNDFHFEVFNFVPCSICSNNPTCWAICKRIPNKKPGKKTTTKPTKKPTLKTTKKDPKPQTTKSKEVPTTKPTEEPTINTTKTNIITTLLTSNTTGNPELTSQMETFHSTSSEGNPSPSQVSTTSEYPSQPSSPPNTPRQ
Test: SPR (IBIS MX96), IgG captured on anti-human IgG, RSV Ga injected
Each entry below lists one item and its recorded kon value.
parameter-measured: kon (M⁻¹ s⁻¹)

>>> reported_measurement("AT49 (antibody, V domains shown) VH: QVLLVQSGAEIKKPGSSVKISCKASGGTFSSLALNWVRQAPGQGLQWMGGIIPLFGTQNYAQKFQGRVTITADESTSTAYMELSGLRPEDTAVYYCALFLWFGDQTSDDGFDVWGQGTVVTVSS VL: DIVMTQSPLSLTVTPGEPASISCRSSQSLLHGNGYKYLHWYLQKPGQSPQLLIYLGSNRASGVPARFSGSGSDTDFTLKISTVETEDVGVYYCMQALQSPTFGQGTKVEIKR")
220000
>>> reported_measurement("AT44 (antibody, V domains shown) VH: QVQLQASGPGLVKPSETLSLTCNVSGYSVSSGHYWAWVRQSPGKGLEWIGGIHHSGSTYTNPPLKSRVSISIDTSKNQFSLRLTSVTAADTAVYFCARDLYDLSTGPFWFDPWGQGTLVTVSS VL: EIVMTQSPATLSVSPGERVTLSCRASQSVSTKVVWYQQKFGQAPRLLIYGASTRATGIPVRFSGSGSGTEFTLTISSLQSEDLAVYFCQQYNKWPMYTFGQGTKLEIKR")
350000
>>> reported_measurement("AT42 (antibody, V domains shown) VH: QVQLQESGPGLVQPSETLSLTCTVSGDSITSNVYYWGWIRQPPGKGLEWIGSIFHSGITHYTPSLNSRVTISVDTSKNQFSLRLSSATAADTAVYYCARHWAGLYFDSWGQGALVAVSS VL: EIVLTQSPGTLSLSPGERATLSCRASQTVSSSHLAWYQQKPGQAPRLLIHGSSSRATGIPERFSGSGSGPDFTLTISRLKPEDFAVYYCQYYGDSPGSFGEGTKVEIKR")
640000
>>> reported_measurement("AT32 (antibody, V domains shown) VH: QVQLVQSGAEMKKPGASVKVSCQVAGYTLTELSIHWVRQTPGNGLEWMGGFEPEDGEYIYPQKSQGRVTMTEDTSTGTAYMELRSLRSDDTAVYYCAAEARYCDNSRCSPNFDHWGQGTLVAVSS VL: DIVMTQSPDSLAVSLGERATFSCKSSQSVLYDSNNKNYLAWYQQRPGQPPKLLIYWASTRESGVPDRFSGSGSGTDFTLTISSLQPEDVAVYYCQQYYDPLITFGQGTRLEIKR")
750000
